Each recorded value in this set is attributed to PubChem BioAssay.

Test: reversal of MRP1-mediated doxorubicin resistance, pilot screen, H69AR cells, doxorubicin co-treatment (AID 601)
Conditions: H69AR cells + 2 uM doxorubicin, CellTiter-Glo, 72 h; measured here: viability with 2 uM doxorubicin; at 10 µM; stronger effect = lower value
EXPERIMENTAL_ENDPOINT: viability
Reply with the number, then its unit.

1. Cc1ccc(S(=O)(=O)CC(=O)N2CCCCCC2)cc1 | 90.7%
2. CN1C(=O)C2(NCCc3c2[nH]c2ccccc32)c2ccccc21 (stereo unspecified) | 96%
3. COc1ccc(OC)c(-c2nnc(SCC(=O)NC3CCCCC3)o2)c1 | 92.2%
4. OCCN1CCN(CC(O)COc2ccc3ccccc3c2)CC1 (stereo unspecified) | 92.3%
5. COc1cc(OC)nc(NC(=O)CSc2nc3ccccc3o2)n1 | 94.9%

Q: Entry `O=C1CCc2cc(S(=O)(=O)N3CCC(C(=O)NCc4ccccn4)CC3)ccc2N1` : reported viability = ?
Result: 95.3%

Q: Report viability for `CCc1nnc(NC(=O)CN2CCN(c3ccccc3OC)CC2)s1` please.
Result: 25.2%

Q: I am curious: what viability value has been reported for `O=C(O)c1ccc(COc2c(F)c(F)cc(F)c2F)cc1` ?
Result: 102%

Q: Reported viability, molecule CC(Oc1ccc(Cl)cc1Cl)c1nc(-c2ccc(NC(=O)c3cccnc3)cc2)no1 (stereo unspecified) : ____
Result: 18.8%

Q: Please look up its viability: `O=c1c2nnn(Cc3ccc(Cl)cc3)c2ncn1Cc1ccc(F)cc1`
Result: 87.1%

Q: # get_value(readout='viability', item= c1ccc2c(c1)CC(N1CCCCC1)c1ccccc1N2 (stereo unspecified) )
Result: 86.8%
